Experimental System: T1, FLAG-Hs_FPR2 C-terminally fused to Renilla Luciferase 8 (human, UniProt P25090 1-351)
T1 sequence (looked up): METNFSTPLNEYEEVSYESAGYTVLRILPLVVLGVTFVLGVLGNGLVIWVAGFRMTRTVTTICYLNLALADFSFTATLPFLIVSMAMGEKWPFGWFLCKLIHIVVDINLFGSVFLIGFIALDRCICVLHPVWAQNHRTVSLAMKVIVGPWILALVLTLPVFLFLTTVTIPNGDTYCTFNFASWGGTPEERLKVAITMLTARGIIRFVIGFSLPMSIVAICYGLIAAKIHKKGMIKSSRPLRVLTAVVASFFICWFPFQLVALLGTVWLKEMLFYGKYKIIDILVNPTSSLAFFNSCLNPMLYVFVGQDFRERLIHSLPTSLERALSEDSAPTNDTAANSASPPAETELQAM
Measurement Description: cell-based or functional assay
Where no end group is shown, it is not given here. [ ]: non-standard residue; d: D form. The star is where a group is joined. Palmitoyl = CCCCCCCCCCCCCCCC(=O)*; For = O=C*
Metric Name: BRET of receptor-RLuc8 with Arrestin 3-YFP: Log EC50 (M) (log M)
Note: unit log M is implicit; provide only the numeric part.

These recorded examples may help you get a feel for the data.
{"columns": ["Binder", "Reported"],
 "data": [
  ["For-MTPMRKINPLMKLIN [MCT-2 (Formyl-MTPMRKINPLMKLIN from Cytochrome b)]", -6.06],
  ["WKYMV[dM] (the last residue is the D form; the bought peptide is probably also an amide (surmise); source: bought: Tocris) [WKYMVm]", -8.13],
  ["{Palmitoyl-Palmitoyl}-KIHKKGMIKS (Pal is printed twice; the text speaks of N-terminal palmitoylation as the last step of the synthesis; also called pepducin; source: synthetic peptide (Fmoc solid phase, purified by preparative RP-HPLC)) [F2Pal10 (Pal-Pal-KIHKKGMIKS)]", -6.55]
]}

Then there is this binder:
BRET of receptor-RLuc8 with Arrestin 3-YFP: Log EC50 (M) reported for this binder For-MLFK [fMet-Leu-Phe-Lys (fMLFK)] : -4.44
